assay: Primary qHTS for delayed death inhibitors of the malarial parasite plastid, 96 hour incubation; details: P. falciparum luciferase reporter growth; series mostly up to 28.7 µM
Hit rate of the full screen: of about 320,000 compounds, about 22,000 (6.9%) were called active. Another 27% or so got no clear call; they are omitted. The call rests on the fitted dose curve; in most records, active means well fitted inhibition curve with a large enough effect; inconclusive means small, poorly fitted or top-dose-only effect, or another doubt; inactive means no such curve, though single readings can be large or run the other way. This is one part of a sample in which actives are shown more often than they occur.
Allowed answers: active, inactive

Examples from the recorded data:
Input: State the result this test recorded for COc1ccc(/C=C2\SC(=O)N(CCC(=O)NC3CCS(=O)(=O)C3)C2=O)cc1 (stereo not given) .
Output: inactive

Input: State the result this test recorded for COc1ccc(NC(=S)N2CCC(NC(=O)c3cccc(F)c3)CC2)cc1 .
Output: inactive

Input: State the result this test recorded for Cc1ccc(S(=O)(=O)c2c(N)n(C)c3nc4ccccc4nc23)cc1 .
Output: active

Input: State the result this test recorded for Cc1ccc(Cn2c(C)c3cnn(CC(=O)NCc4ccccn4)c(=O)c3c2C)cc1 .
Output: inactive

Input: State the result this test recorded for CC(NC(=O)c1ccc(S(=O)(=O)Nc2ccccc2)cc1)c1ccc(S(N)(=O)=O)cc1 (stereo not given) .
Output: inactive

Input: State the result this test recorded for Cc1csc(NC(=S)Nc2cccc(Cl)c2)n1 .
Output: inactive

More entries:
Input: State the result this test recorded for Cc1ccc(S(=O)(=O)Nc2nc(N)n(-c3ccccc3)n2)cc1 .
Output: inactive

Input: State the result this test recorded for O=C(CN(C(=O)c1nsc(Cl)c1Cl)c1cccc(F)c1)NC1CCCC1 .
Output: inactive

Input: State the result this test recorded for Cc1ccc(CNC(=O)Cn2c(=O)c3sccc3n(Cc3cccc([N+](=O)[O-])c3)c2=O)cc1 .
Output: active

Input: State the result this test recorded for CCOC(=O)N1CCN(Cc2nc3cc(NC(=O)CC)ccc3n2CC)CC1 .
Output: inactive

====

assay: Primary qHTS for delayed death inhibitors of the malarial parasite plastid, 96 hour incubation; conditions: P. falciparum luciferase reporter growth; series mostly up to 28.7 µM
The whole screen tested about 320,000 compounds, of which about 22,000 (6.9%) were called active. Another 27% or so got no clear call; they are omitted. Calls follow the shape of the dose curve; as a rule, active = well fitted inhibition curve with a large enough effect; inconclusive = small, poorly fitted or top-dose-only effect, or another doubt; inactive = no such curve, though single readings can be large or run the other way. This is one part of a sample in which actives are shown more often than they occur.
Allowed answers: Yes (active), No (inactive)

Input: State the result this test recorded for CN(C)CCCN(C(=O)COc1ccccc1)c1nc2c(Cl)cccc2s1 .
Output: No

More entries:
Input: State the result this test recorded for NC(N)=N/N=C/c1ccc(Cl)c([N+](=O)[O-])c1 .
Output: Yes

Input: State the result this test recorded for COc1ccc2[nH]c(C(=O)N/N=C/c3cc(OC)c(OC)c(OC)c3)cc2c1 .
Output: Yes

Input: State the result this test recorded for O=C(Nc1ccc2oc(-c3ccc4ccccc4c3)nc2c1)c1cccs1 .
Output: Yes

Input: State the result this test recorded for CN(C)c1ccc(/C=C/C(=O)c2ccc(O)cc2)cc1[N+](=O)[O-] .
Output: No

Input: State the result this test recorded for CCOCCc1nn2c(=O)cc(CSCC(=O)Nc3cccc(C)c3C)nc2s1 .
Output: No

Input: State the result this test recorded for N#Cc1cccc(CN2CCC(=O)N(CCO)CC2)c1 .
Output: No

Input: State the result this test recorded for COc1ccc(F)cc1S(=O)(=O)N1CCCCC1 .
Output: No

Input: State the result this test recorded for COc1ccc(CCN(C(=O)COc2ccccc2)c2nc(-c3ccccc3)cs2)cc1OC .
Output: Yes

Input: State the result this test recorded for O=C(Cc1cccc2ccccc12)Nc1ccc2oc(-c3ccccc3)nc2c1 .
Output: No

Input: State the result this test recorded for O=C(/C=C/c1ccc2c(c1)OCCO2)c1ccc(O)cc1 .
Output: No

====

Assay: Primary qHTS for delayed death inhibitors of the malarial parasite plastid, 96 hour incubation
Details: P. falciparum luciferase reporter growth; series mostly up to 28.7 µM
Source text: The goal of this screen is to discover new antimalarial compounds that act by inhibiting the development of the apicoplast in the malarial parasite Plasmodium falciparum. […] We have developed a cell-based assay that measures parasite growth based on the expression of an integrated copy of a firefly luciferase reporter. […] Growth inhibition is detected by a decrease in luciferase activity. […]
Among all 320,000 compounds or so, about 22,000 (6.9%) were called active. About 27% were inconclusive and are not listed. The call rests on the fitted dose curve; in most records, active means well fitted inhibition curve with a large enough effect; inconclusive means small, poorly fitted or top-dose-only effect, or another doubt; inactive means no such curve, though single readings can be large or run the other way. For the sample, actives were picked, then their nearest neighbours and some compounds at random.
Allowed answers: label 1 = active, label 0 = inactive

Input: State the result this test recorded for CN(C)C(=O)Oc1ccc(NC(=O)N2CCOCC2)cc1 .
Output: label 1

Input: State the result this test recorded for Cc1ccc(OCC(=O)N2CCN(C(=O)c3cccnc3)CC2)cc1 .
Output: label 0

Input: State the result this test recorded for CCN(CC(=O)Nc1c(F)cccc1F)C(=O)c1cnc(C)cn1 .
Output: label 0

Input: State the result this test recorded for COc1ccc(/C=C(\NC(=O)c2ccccc2)C(=O)NCCN2CCOCC2)cc1OC .
Output: label 0

Input: State the result this test recorded for CCN(CC)C(=O)N1CCN(C(=O)c2ccc(C)cn2)CC1 .
Output: label 1

Input: State the result this test recorded for COC(=O)c1ccc(S(=O)(=O)N2CCc3ccccc3C2)cc1 .
Output: label 0

====

assay: Primary qHTS for delayed death inhibitors of the malarial parasite plastid, 96 hour incubation; conditions: P. falciparum luciferase reporter growth; series mostly up to 28.7 µM
The campaign covered roughly 320,000 compounds. About 22,000 (6.9%) were called active. Not shown: some 27% with an inconclusive outcome. The call rests on the fitted dose curve; in most records, active means well fitted inhibition curve with a large enough effect; inconclusive means small, poorly fitted or top-dose-only effect, or another doubt; inactive means no such curve, though single readings can be large or run the other way. The entries come from a sample that favours actives as a whole.
Allowed answers: active, inactive

Examples from the recorded data:
Input: State the result this test recorded for Cc1cc(=O)oc2c(C)c(OCC(=O)N3CCN(Cc4ccc5c(c4)OCO5)CC3)ccc12 .
Output: inactive

Input: State the result this test recorded for CC1CCCCC1NC(=O)/C(C#N)=C/C=C/c1ccccc1[N+](=O)[O-] (stereo not drawn) .
Output: active

Input: State the result this test recorded for N/C(=N\OC(=O)COc1ccc([N+](=O)[O-])cc1)c1ccc(Br)cc1 .
Output: inactive

Input: State the result this test recorded for COC(=O)CNc1nc(Cl)nc(N2CCC(C)CC2)n1 .
Output: inactive

Input: State the result this test recorded for O=C(/C=C/c1ccccc1[N+](=O)[O-])NCC1CCCO1 (stereo not drawn) .
Output: inactive

More entries:
Input: State the result this test recorded for COc1ccc(S(=O)(=O)N2CCOCC2)c(C)c1C .
Output: inactive

Input: State the result this test recorded for COCCCC1CCN(C(=O)C2CCC(=O)N(C3CCCCCC3)C2)CC1 (stereo not drawn) .
Output: inactive

Input: State the result this test recorded for O=C(/C=C/c1ccccc1[N+](=O)[O-])OC1CCCCC1=O (stereo not drawn) .
Output: inactive

Input: State the result this test recorded for Nc1cc(N)nc(SCc2ccc(Cl)cc2)n1 .
Output: inactive

Input: State the result this test recorded for CCCNC(=O)OC[C@H]1O[C@H](CCO/N=C/[C@@H](NS(=O)(=O)c2ccc(C)cc2)[C@H](C)/C=C/CC(=O)OC)C=C[C@@H]1Oc1ccc(OC)cc1 .
Output: active

====

experiment: Primary qHTS for delayed death inhibitors of the malarial parasite plastid, 96 hour incubation; settings: P. falciparum luciferase reporter growth; series mostly up to 28.7 µM
In all, about 320,000 compounds went through this assay and about 22,000 (6.9%) were called active. Inconclusive results (about 27%) are left out. Calls follow the shape of the dose curve; as a rule, active = well fitted inhibition curve with a large enough effect; inconclusive = small, poorly fitted or top-dose-only effect, or another doubt; inactive = no such curve, though single readings can be large or run the other way. The list comes from a sample in which actives are over-represented; it also holds close analogues and randomly drawn compounds.
Allowed answers: Y (active), N (inactive)

Examples from the recorded data:
Input: State the result this test recorded for Cc1cc(OCC(=O)N(C)c2c(N)n(Cc3ccccc3)c(=O)[nH]c2=O)c(C(C)C)cc1Cl .
Output: N

Input: State the result this test recorded for O=C(COC(=O)Cc1ccccc1F)NNC(=O)c1ccc(Cl)cc1 .
Output: N

Input: State the result this test recorded for CN(CC(=O)Nc1cccc(F)c1)C(=O)C1=COCCO1 .
Output: N

Input: State the result this test recorded for CC1CCC(NC(=O)C2c3ccccc3C(=O)N2Cc2ccc3c(c2)OCO3)CC1 (stereo not drawn) .
Output: N

More entries:
Input: State the result this test recorded for CCN(CC(=O)NCc1ccc(Cl)cc1)C(=O)c1c(C)noc1C .
Output: N

Input: State the result this test recorded for Cc1ccc(S(=O)(=O)N(C)CC(=O)NCCc2c[nH]c3ccccc23)cc1 .
Output: N

Input: State the result this test recorded for Cn1cncc1COC(=O)c1ccc(Cl)cc1 .
Output: N

Input: State the result this test recorded for CCOC(=O)C(=O)C1C(=O)Nc2ccccc21 (stereo not drawn) .
Output: N

Input: State the result this test recorded for CC1CCC(N2CC(=O)N(Cc3ccc4c(c3)OCO4)C(c3ccc(F)cc3)C2=O)CC1 (stereo not drawn) .
Output: Y

Input: State the result this test recorded for COc1cccc(OC)c1C(=O)Nc1c(C(=O)N2CCN(c3ccccn3)CC2)oc2ccccc12 .
Output: N

Input: State the result this test recorded for O=C(NCc1ccco1)/C(=C/c1ccco1)NC(=O)c1ccccc1 .
Output: N

Input: State the result this test recorded for CCOC(=O)CN1CC23C=CC(O2)C(C(=O)Nc2ccc(F)cc2)C3C1=O (stereo not drawn) .
Output: N

Input: State the result this test recorded for CCC1CCCCN1C(=O)CSc1nc(C)cc(C)n1 (stereo not drawn) .
Output: N

Input: State the result this test recorded for CCCOc1ccc(Cc2c(O)nc(SC)[nH]c2=O)cc1C .
Output: N

Input: State the result this test recorded for C/C(=N\NC(=S)NC1CCCCC1)c1ccc(C)o1 .
Output: Y

Input: State the result this test recorded for CCC1CCCCN1C(=O)CSc1nc2c(c(=O)n(C)c(=O)n2C)n1C (stereo not drawn) .
Output: N

Input: State the result this test recorded for N#CCc1ccc(NC(=O)c2ccccc2C(=O)Nc2ccc(CC#N)cc2)cc1 .
Output: N

Input: State the result this test recorded for COc1ccccc1N1CCN(CC(=O)Nc2ccnn2C2CCCC2)CC1 .
Output: N

Input: State the result this test recorded for O=C(NCC(=O)N(c1ccccc1)C(C(=O)NCC1CCCO1)c1ccccc1)c1cccs1 (stereo not drawn) .
Output: N

Input: State the result this test recorded for CCn1c(CC(=O)Nc2ccccc2)nnc1SCC(=O)N1CCOCC1 .
Output: N

Input: State the result this test recorded for O=C(NCCc1c[nH]c2ccccc12)c1cc2ccccc2oc1=O .
Output: N

Input: State the result this test recorded for CC(C)COC(=O)C1C2C=CC3(CN(C(C)c4ccc(Br)cc4)C(=O)C13)O2 (stereo not drawn) .
Output: Y

Input: State the result this test recorded for CC(=O)c1nc2ccccc2n1Cc1ccccc1 .
Output: N
